System: HOP-92 NSCLC
Assay: NCI-60 one-dose screen, 48 h (100 = growth as untreated, 0 = no growth, -100 = all killed)
Settings: 10 µM unless noted
This is part of a sample that, as a whole, favours compounds with a hit. Of some 83,000 tested, about 20% had one in any assay.
# growth >= 90% gives yes, anything below gives no

These solved cases illustrate the format of a correct answer.
Compound	Classification
COC(=O)C1CCc2sc3ncnc(Nc4cn[nH]c4C(=O)Nc4ccc(CN5CCN(C)CC5)cc4)c3c21 (stereo not given)	no
Nc1nc(N)c2nc(-c3cccc(O)c3)c(-c3cccc(O)c3)nc2n1	no
O=C(CNc1nc(-c2ccc(Cl)cc2)cs1)Nc1ccc(-c2nc3ccccc3s2)cc1	yes
CCCCCCC1(/C=N/NC(N)=O)NC(=O)NC1=O (stereo not given)	yes

Note: attention shifts to another entry.
Hello, I need to know if `COc1ccc(/C(C)=C(\c2ccc(Cl)cc2)c2ccc(OCCN3CCCCCC3)cc2)cc1` has measured growth not below 90%. Thanks!
no

---

Tested on: OVCAR-4 ovarian
Assay: NCI-60 one-dose screen, 48 h
Conditions: 10 µM unless noted
The panel holds about 83,000 compounds, 20% with a hit somewhere; the sample as a whole holds those more often. Active and inactive are the calls of the source. How the source made its calls: active means growth percent below 10; inactive means the rest.
Pick one and only one: active, inactive

These solved cases illustrate the format of a correct answer.
Compound	Classification
Clc1nc(Cl)c2ncn(C/C=C\Cn3cnc4c(Cl)nc(Cl)nc43)c2n1	active
COc1cc2ncnc(Nc3ccc(F)c(Cl)c3)c2cc1NC(=O)/C=C/CN1CCCCC1	active
NN1C(=O)CSC1=S	inactive
CCCCCCCC(=O)SCC/C=C/[C@@H]1CC(=O)NCc2cccc(n2)C2=N[C@@](C)(CS2)C(=O)N[C@@H](C(C)C)C(=O)O1	inactive

Note: attention shifts to another entry.
Check the results log: what was the call for Nc1cc2c(cc1Br)-c1c(C(=O)O)cccc1C2O (stereo not given) ?
inactive

---

System: OVCAR-3 ovarian
Test: NCI-60 one-dose screen, 48 h (100 = growth as untreated, 0 = no growth, -100 = all killed)
Settings: 10 µM unless noted
About 83,000 compounds went through this panel and 20% of them were active in at least one assay; those are over-represented in the sample as a whole.
Quick reference for growth among some compounds
Answer in %, number only, no unit symbol.

Some compounds with known growth results, for comparison:
Oc1ccc(/C=N/Nc2nnc(N/N=C/c3ccc(O)cc3O)c3ccccc23)c(O)c1 -34.1
CC(C)[C@@H]1CC[C@]2(CO2)[C@@H]2C(=O)OCC(C(=O)O)=C[C@H]21 5.83
COc1ccc2c(CCCC(c3ccccc3)c3ccccc3)c3[n+](cc2c1OC)CCc1cc2c(cc1-3)OCO2 -74.6

Hi! What's the reported growth for `CCc1ccc(C2=C(O)C(=O)C(c3ccc(CC)cc3)=C(O)C2=O)cc1` on OVCAR-3 ovarian?
-47.2

# iterate: `COc1cc2nccc(Oc3ccc(NC(=O)C4(C(=O)Nc5ccc(F)cc5)CC4)cc3)c2cc1OC`
41.2

# iterate: `C[C@@H](Oc1cc(C(=O)Nc2ccc(C(=O)N3CCN(C)CC3)cc2)nnc1N)c1c(Cl)ccc(F)c1Cl`
91.6

# iterate: `O=C(Nc1ccc(N=Nc2ccccc2)cc1)c1cccc2ccccc12`
37.1

# iterate: `FC(F)c1nc2ccccc2n1-c1nc(N2CCOCC2)nc(N2CCOCC2)n1`
-0.63

# iterate: `CCN1CCN(Cc2ccc(-c3cc4c(N[C@H](C)c5ccccc5)ncnc4[nH]3)cc2)CC1`
56.8
